target: T1, human SIRPα v2 ECD recombinant protein (tag not given) (human); experiment: competitive ELISA, mFc-CD47 ECD on coated SIRPα v2 ECD
T1 construct: extracellular domain; also called ELISA microplate coated human SIRPα v2 ECD
REPORTED METRIC: TOP blocking (%)
Numeric answer only, unit % assumed.

Given the entry 071c (antibody, V domains shown, also called chimeric antibody 071c) VH: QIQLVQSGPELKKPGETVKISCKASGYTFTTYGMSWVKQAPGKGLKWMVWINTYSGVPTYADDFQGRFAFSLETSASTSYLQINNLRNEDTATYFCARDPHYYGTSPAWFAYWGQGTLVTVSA VL: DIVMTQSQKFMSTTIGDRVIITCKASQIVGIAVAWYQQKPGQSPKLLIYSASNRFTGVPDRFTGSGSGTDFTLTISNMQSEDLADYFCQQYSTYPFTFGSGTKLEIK , report its measured TOP blocking (%). 76.3

Given the entry hu1H9G4 (antibody, V domains shown) VH: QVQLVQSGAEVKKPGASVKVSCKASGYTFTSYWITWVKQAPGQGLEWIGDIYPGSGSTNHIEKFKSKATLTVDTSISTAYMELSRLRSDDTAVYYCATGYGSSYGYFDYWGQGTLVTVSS VL: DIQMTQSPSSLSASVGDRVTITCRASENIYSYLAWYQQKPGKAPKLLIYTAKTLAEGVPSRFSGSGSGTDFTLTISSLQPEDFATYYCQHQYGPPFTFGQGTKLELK , report its measured TOP blocking (%). 98.2

Others:
Given the entry 059c (antibody, V domains shown, also called chimeric antibody 059c) VH: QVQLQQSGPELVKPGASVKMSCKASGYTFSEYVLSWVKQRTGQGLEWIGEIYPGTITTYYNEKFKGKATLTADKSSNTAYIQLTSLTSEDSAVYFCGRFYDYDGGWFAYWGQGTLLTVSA VL: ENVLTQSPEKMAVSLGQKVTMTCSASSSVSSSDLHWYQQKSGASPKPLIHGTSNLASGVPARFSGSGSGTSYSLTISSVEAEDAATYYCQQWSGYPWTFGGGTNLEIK , report its measured TOP blocking (%). 84.4

Given the entry 073c (antibody, V domains shown, also called chimeric antibody 073c) VH: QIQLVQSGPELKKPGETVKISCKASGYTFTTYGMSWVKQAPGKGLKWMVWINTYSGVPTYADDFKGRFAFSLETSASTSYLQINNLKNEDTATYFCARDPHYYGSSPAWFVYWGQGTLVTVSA VL: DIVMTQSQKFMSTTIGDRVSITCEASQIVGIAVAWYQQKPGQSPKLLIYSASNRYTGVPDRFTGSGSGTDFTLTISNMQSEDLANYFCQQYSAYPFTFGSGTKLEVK , report its measured TOP blocking (%). 82.8

Given the entry 025c (antibody, V domains shown, also called chimeric antibody 025c; parental antibody of 025c) VH: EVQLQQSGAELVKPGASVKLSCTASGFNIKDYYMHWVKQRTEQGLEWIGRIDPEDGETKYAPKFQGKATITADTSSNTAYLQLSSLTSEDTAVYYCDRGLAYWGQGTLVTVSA VL: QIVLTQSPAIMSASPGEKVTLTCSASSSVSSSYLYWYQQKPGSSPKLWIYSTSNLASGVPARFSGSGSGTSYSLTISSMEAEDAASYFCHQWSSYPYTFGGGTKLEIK , report its measured TOP blocking (%). 96.5

Given the entry 042c (antibody, V domains shown, also called chimeric antibody 042c) VH: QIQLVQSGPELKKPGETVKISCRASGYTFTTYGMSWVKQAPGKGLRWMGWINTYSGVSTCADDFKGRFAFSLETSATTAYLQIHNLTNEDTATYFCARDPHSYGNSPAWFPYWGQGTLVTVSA VL: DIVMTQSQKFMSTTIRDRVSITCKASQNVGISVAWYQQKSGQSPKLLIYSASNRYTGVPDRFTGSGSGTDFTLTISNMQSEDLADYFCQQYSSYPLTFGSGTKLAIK , report its measured TOP blocking (%). 94.6

Given the entry 015c (antibody, V domains shown, also called chimeric antibody 015c) VH: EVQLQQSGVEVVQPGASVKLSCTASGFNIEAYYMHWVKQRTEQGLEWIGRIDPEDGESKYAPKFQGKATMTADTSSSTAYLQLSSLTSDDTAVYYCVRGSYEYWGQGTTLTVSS VL: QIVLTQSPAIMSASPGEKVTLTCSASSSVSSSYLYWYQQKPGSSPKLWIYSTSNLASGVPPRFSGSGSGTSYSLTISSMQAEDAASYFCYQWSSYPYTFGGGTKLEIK , report its measured TOP blocking (%). 96.7
